tested on: HT29 cells; experiment: MTT cell viability assay, HT29; format: cell-based, human; conditions: Homo sapiens, HT-29, 72 h incubation, read-out: IC50 Cell viability (HT29 cells)
pIC50: −log10 of the molar value.
Measurement name: pIC50

Molecule: Cc1ccc([N+](=O)[O-])cc1NC(=O)Nc1cccc2c(O)cccc12 [T2A]
pIC50: 4.82
//
Molecule: Cc1c(Cl)cccc1NC(=O)Nc1ccc(CC(=O)O)cc1 [T2C]
pIC50: 3.70
//
Molecule: O=C(Nc1ccccc1)Nc1cc(Cl)c([N+](=O)[O-])cc1O [T2B]
pIC50: 5.22

[I] Cc1c(Cl)cccc1NC(=O)Nc1cc([N+](=O)[O-])ccc1O [T2]
[II] O=[N+]([O-])c1cccc(NC(=S)Nc2cc(Cl)ccc2O)c1 [T2E]
[ask] Which one would you say has the larger pIC50 value: I , or II ? Field: selected label. Fill in the label of the entry you choose.
[reply] I
(I: 5.00, II: 4.70)

###

molecular target: Transketolase from cell extract (Homo sapiens, UniProt P29401); construct: approximately 300 µg of protein cell extract used for the determination of transketolase enzyme activity; endogenous in cells; host or cells: Cultured cells; assay: Transketolase activity in cell extract (enzyme-linked NADH oxidation, spectrophotometric/fluorimetric); assay type: biochemical
Measurement name: IC50

Answered cases to consult:
Smiles text: Cc1ccc([N+](=O)[O-])cc1NC(=O)Nc1cccc2c(O)cccc12
IC50: 150 µM
--
Smiles text: CCc1ccc(NC(=O)Nc2cccc([N+](=O)[O-])c2)c(CC)c1
IC50: > 200 µM
--
Smiles text: Cc1c(Cl)cccc1NC(=O)Nc1ccc(CC(=O)O)cc1
IC50: > 200 µM

[ask] What value of IC50 has been recorded for this entry: Cc1c(Cl)cccc1NC(=O)Nc1cc([N+](=O)[O-])ccc1O
[reply] 200 µM

[ask] What value of IC50 has been recorded for this entry: O=[N+]([O-])c1cccc(NC(=S)Nc2cc(Cl)ccc2O)c1
[reply] > 200 µM

[ask] What value of IC50 has been recorded for this entry: Cc1c(Cl)cccc1NC(=O)Nc1cccc(O)c1
[reply] > 200 µM

###

Tested on: HCT116 cells
Experiment: MTT cell viability assay, HCT116
Format: cell-based, human
Conditions: Homo sapiens, HCT-116, 72 h incubation, read-out: IC50 Cell viability (HCT116 cells)
Description: HCT116 human colon carcinoma cells (gift from Dr Capellà, Institut Català d'Oncologia, Barcelona, Spain) were grown in DMEM∶HAM F12 (1∶1), supplemented with 10% heat-inactivated foetal calf serum (FCS) (PAA Laboratories, Pasching, Austria), L-glutamine (2 mM), pyruvic acid (1 mM), non-essential aminoacids (1%) and antibiotics: 100 U×mL^−1 penicillin and 100 µg×mL^−1 streptomycin. […]
pIC50: −log10 of the molar value.
Measurement name: pIC50

Molecule: O=C(Nc1ccccc1)Nc1cc(Cl)c([N+](=O)[O-])cc1O [T2B]
Result number: 4.92

Molecule: Cc1ccc([N+](=O)[O-])cc1NC(=O)Nc1cccc2c(O)cccc12 [T2A]
Result number: 4.77

Molecule: Cc1c(Cl)cccc1NC(=O)Nc1cc([N+](=O)[O-])ccc1O [T2]
Result number: 5.05

[I] O=[N+]([O-])c1cccc(NC(=S)Nc2cc(Cl)ccc2O)c1 [T2E]
[II] Cc1c(Cl)cccc1NC(=O)Nc1ccc(CC(=O)O)cc1 [T2C]
[ask] Which one would you say has the larger pIC50 value: I , or II ? Field: selected label. Fill in the label of the entry you choose.
[reply] I

###

Molecular target: Transketolase from cell extract (Homo sapiens, UniProt P29401)
Construct: approximately 300 µg of protein cell extract used for the determination of transketolase enzyme activity; endogenous in cells; host or cells: Cultured cells
Sequence (P29401 1-623): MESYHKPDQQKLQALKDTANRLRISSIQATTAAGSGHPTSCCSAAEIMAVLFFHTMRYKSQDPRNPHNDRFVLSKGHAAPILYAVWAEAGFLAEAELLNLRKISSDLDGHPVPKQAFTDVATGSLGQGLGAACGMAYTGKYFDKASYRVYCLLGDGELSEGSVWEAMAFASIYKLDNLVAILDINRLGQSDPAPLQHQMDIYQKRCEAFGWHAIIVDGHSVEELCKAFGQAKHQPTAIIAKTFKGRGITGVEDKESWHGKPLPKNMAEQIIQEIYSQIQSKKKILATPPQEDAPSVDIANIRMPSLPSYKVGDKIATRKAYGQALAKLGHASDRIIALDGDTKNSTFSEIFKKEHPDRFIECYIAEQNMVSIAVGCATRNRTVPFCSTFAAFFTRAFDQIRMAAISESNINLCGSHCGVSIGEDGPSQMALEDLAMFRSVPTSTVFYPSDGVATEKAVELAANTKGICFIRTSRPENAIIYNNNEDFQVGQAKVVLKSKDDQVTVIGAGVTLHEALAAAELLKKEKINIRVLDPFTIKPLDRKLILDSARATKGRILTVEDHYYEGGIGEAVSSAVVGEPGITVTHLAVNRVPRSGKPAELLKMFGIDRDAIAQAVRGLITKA
Experiment: Transketolase activity in cell extract (enzyme-linked NADH oxidation, spectrophotometric/fluorimetric)
Format: biochemical
Conditions: Figure 2 grouping
Measurement name: inhibitory activity class (Figure 2)

Answered cases to consult:
Smiles text: O=C(Nc1ccccc1)Nc1cc(Cl)c([N+](=O)[O-])cc1O
inhibitory activity class (Figure 2): Actives
--
Smiles text: Cc1c(Cl)cccc1NC(=O)Nc1ccc(CC(=O)O)cc1
inhibitory activity class (Figure 2): Inactives
--
Smiles text: CCc1ccc(NC(=O)Nc2cccc([N+](=O)[O-])c2)c(CC)c1
inhibitory activity class (Figure 2): Inactives
--
Smiles text: O=[N+]([O-])c1cccc(NC(=S)Nc2cc(Cl)ccc2O)c1
inhibitory activity class (Figure 2): Inactives
--
Smiles text: Cc1ccc([N+](=O)[O-])cc1NC(=O)Nc1cccc2c(O)cccc12
inhibitory activity class (Figure 2): Actives

[ask] What value of inhibitory activity class (Figure 2) has been recorded for this entry: Cc1c(Cl)cccc1NC(=O)Nc1cccc(O)c1
[reply] Inactives

[ask] What value of inhibitory activity class (Figure 2) has been recorded for this entry: Cc1c(Cl)cccc1NC(=O)Nc1cc([N+](=O)[O-])ccc1O
[reply] Actives

###

biological target: Transketolase from cell extract (Homo sapiens); construct: approximately 300 µg of protein cell extract used for the determination of transketolase enzyme activity; endogenous in cells; host or cells: Cultured cells; experiment: Transketolase activity in cell extract (enzyme-linked NADH oxidation, spectrophotometric/fluorimetric); assay type: biochemical; settings: cell extract; compound concentration varied 50 to 300 µM; read-out: IC50 Transketolase from cell extract
Measurement name: IC50 (µM)
Enter your answer as a number in µM; do not include the unit.

[ask] What value of IC50 has been recorded for this entry: O=C(Nc1ccccc1)Nc1cc(Cl)c([N+](=O)[O-])cc1O
[reply] 100
